Here, each record is paired with measured protein stability index data.
B1: CDC25B (parent)
chain: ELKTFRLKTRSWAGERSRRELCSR

variants of: B1; assay: protein stability index of a GFP-peptide fusion (GPS, HEK-293T) (PSI 1-6); higher = more stable; conditions: c terminus: a fixed tail appended;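 note: lentivirally expressed fusions sorted by FACS into six bins by GFP to DsRed ratio, PSI derived from sequencing read proportions per bin multiplied by bin number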
Reply with the value as a number alone.

Some variants with recorded protein stability index:
{"columns": ["entry-sequence", "test-value"],
 "data": [
  ["ELKTFRLKFRSWAGERSRRELCSR [T9F]", 2.18],
  ["ELKTFRLKTRAWAGERSRRELCSR [S11A]", 2.68],
  ["ELKTFRLKTRSWAGERQRRELCSR [S17Q]", 3.35],
  ["ELKTFRLKTRSWAGERLRRELCSR [S17L]", 2.87],
  ["ELKTFRLKTRSWAGERSRRNLCSR [E20N]", 3.42],
  ["ELKTFRLKTRSWAGERSRRELCWR [S23W]", 2.69],
  ["ELKTFRLKTRSWAGERSRLELCSR [R19L]", 3.2],
  ["ELKTFRLKTRSWAGERSRREACSR [L21A]", 3.91]
]}

Entry under review: ELKTYRLKTRSWAGERSRRELCSR [F5Y] . Reported protein stability index?
3.94

Entry under review: ELKTFRLKTRSWAGEPSRRELCSR [R16P] . Reported protein stability index?
3.67

The measurements presented in this section are drawn from the supplement of paper PMC10567573.
